EXPERIMENTAL_TARGET: IL-23R (Homo sapiens)
Sequence (Q5VWK5 24-629): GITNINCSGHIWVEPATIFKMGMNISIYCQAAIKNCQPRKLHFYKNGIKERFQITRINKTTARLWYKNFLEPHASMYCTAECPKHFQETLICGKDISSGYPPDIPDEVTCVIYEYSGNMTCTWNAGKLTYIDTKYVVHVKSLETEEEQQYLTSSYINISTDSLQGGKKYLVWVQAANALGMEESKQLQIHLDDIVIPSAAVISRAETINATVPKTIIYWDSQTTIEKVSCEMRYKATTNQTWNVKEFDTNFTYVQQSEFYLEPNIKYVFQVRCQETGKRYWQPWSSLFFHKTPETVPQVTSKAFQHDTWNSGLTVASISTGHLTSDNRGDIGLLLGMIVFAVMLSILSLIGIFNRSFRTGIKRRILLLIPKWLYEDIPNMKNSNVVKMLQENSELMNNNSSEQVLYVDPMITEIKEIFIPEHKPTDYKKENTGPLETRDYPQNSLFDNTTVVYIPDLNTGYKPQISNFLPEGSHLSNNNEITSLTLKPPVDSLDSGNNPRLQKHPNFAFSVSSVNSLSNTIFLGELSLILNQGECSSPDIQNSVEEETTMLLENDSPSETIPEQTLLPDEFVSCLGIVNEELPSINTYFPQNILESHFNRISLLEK
PROTOCOL_DESCRIPTION: DB cells IL23R pSTAT3 cell assay (pStat3 HTRF)
Format: cell-based
MEASUREMENT_SETUP: Table E3; DB cells, IL-23 0.5 nM, 30 minutes at 37° C.; read-out: pStat3 HTRF (IC50)
QUANTITY_KIND: IC50

CC(=O)NCCCC[C@@H]1NC(=O)[C@H](Cc2c[nH]c3c(C)cccc23)NC(=O)[C@H]([C@@H](C)O)NC(=O)[C@H](CC(N)=O)NC(=O)[C@@H](NC(C)=O)C(C)(C)SSC(C)(C)[C@@H](C(=O)N[C@@H](Cc2ccc(OCCN)cc2)C(=O)N[C@@H](Cc2ccc3ccccc3c2)C(=O)N[C@@](C)(CCCCN)C(=O)N[C@@H](CCCCNC(C)=O)C(=O)N[C@@H](CC(N)=O)C(=O)N2CCC[C@@H]2C(N)=O)NC1=O ... 1 to 10 nM
CC(=O)NCCCC[C@H](NC(=O)[C@](C)(CCCCN)NC(=O)[C@H](Cc1ccc2ccccc2c1)NC(=O)[C@H](Cc1ccc(OCCN)cc1)NC(=O)[C@H]1NC(=O)[C@H](CCC(N)=O)NC(=O)[C@H](Cc2c[nH]c3c(C)cccc23)NC(=O)[C@H]([C@@H](C)O)NC(=O)[C@H](CC(N)=O)NC(=O)[C@@H](NC(C)=O)C(C)(C)SSC1(C)C)C(=O)N[C@@H](CC(C)C)C(=O)NCCC(N)=O ... 1 to 10 nM

Now take the following compound into account.
Given item `CC(=O)N[C@@H]1C(=O)N[C@@H](CC(N)=O)C(=O)N[C@@H]([C@@H](C)O)C(=O)N[C@@H](Cc2c[nH]c3c(C)cccc23)C(=O)N[C@@H](CCC(N)=O)C(=O)N[C@H](C(=O)N[C@@H](Cc2ccc(OCCN)cc2)C(=O)N[C@@H](Cc2ccc3ccccc3c2)C(=O)N[C@@](C)(CC(C)C)C(=O)NCC(=O)N2CCC[C@H]2C(=O)NCCC(N)=O)C(C)(C)SSC1(C)C` , the value recorded as its IC50 is 10 to 100 nM
